Test system: wheat (Triticum aestivum)
Test: Test A postemergence, wheat
Format: in vivo
Settings: Triticum aestivum, post-emergence, 240 h, 500 g ai/ha, 0 to 100 scale, 0 no effect, 100 complete control, read-out: Plant response rating, Wheat
Listed below: plant injury at 500 g/ha values for each entry.
Answer in %, number only, no unit symbol.

// below: answered compounds
C[C@@H](Nc1ncc(C(F)(F)F)c(N)n1)c1cc2cccc(F)c2o1 | 0
C[C@@H](Nc1ncc(C(F)(F)F)c(N)n1)c1cc2c(F)cccc2o1 | 0
C[C@@H](Nc1ncc(C(F)(F)F)c(N)n1)c1cc2c(F)cccc2s1 | 30

Please look at the following compound next.
Inquiry: What does the data say about its plant injury at 500 g/ha? Entry: C[C@@H](Nc1ncc(C(F)(F)F)c(N)n1)c1cc2cccc(F)c2s1
Reply text: 0

====

Tested on: ryegrass, Italian (Lolium multiflorum)
Experiment: Test A preemergence, Italian ryegrass
Assay type: in vivo
Details: 125 g ai/ha, 0 to 100 scale, 0 is no effect, 100 is complete control
Excerpt: Seeds of plant species selected from barnyardgrass (Echinochloa crus-galli), kochia (Kochia scoparia), ragweed (common ragweed, Ambrosia elatior), ryegrass, Italian (Lolium multiflorum), foxtail, giant (Setaria faberii), foxtail, green (Setaria viridis), and pigweed (Amaranthus retroflexus) were planted into a blend of loam soil and sand and treated preemergence with a directed soil spray using test chemicals formulated in a non-phytotoxic solvent mixture which included a surfactant. […]
Below: a set of entries, each annotated with reported Ryegrass, Italian plant response rating.
Give only the figure.

CC(F)c1nc(N[C@H](C)c2cc3ccccc3o2)nc(N)c1C(F)(F)F (some centres unmarked) [Compound 112] | 0

Inquiry: Record lookup: for ryegrass, Italian (Lolium multiflorum), what Ryegrass, Italian plant response rating belongs to C[C@@H](Nc1nc(N)c(C(F)(F)F)c(C(F)(F)F)n1)c1cc2ccccc2s1 [Compound 59] ?
Reply text: 0

Inquiry: # query: Ryegrass, Italian plant response rating | item CC[C@H](Nc1ncc(C(F)(F)F)c(N)n1)c1cc2ccccc2s1 [Compound 44] | system: ryegrass, Italian (Lolium multiflorum)
Reply text: 0

Inquiry: Request body: readout Ryegrass, Italian plant response rating, system ryegrass, Italian (Lolium multiflorum), query CC(Nc1ncc(C(F)(F)F)c(N)n1)c1cc2c(Cl)cccc2o1 (centres unmarked) [Compound 100] . Return the value.
Reply text: 0

Inquiry: Give ryegrass, Italian (Lolium multiflorum) Ryegrass, Italian plant response rating for C[C@@H](Nc1ncc(C(F)(F)F)c(N)n1)c1cc2c(F)cccc2s1 [Compound 61]
Reply text: 40

====

Property: Pigweed plant response rating; scope: individual compounds
Test system: pigweed (Amaranthus retroflexus)
Assay: Test A preemergence, pigweed
Format: in vivo
Conditions: 500 g ai/ha, 0 to 100 scale, 0 is no effect, 100 is complete control
# respond with the number and nothing more

// worked examples, Pigweed plant response rating included
C[C@@H](Nc1ncc(C(F)(F)F)c(N)n1)c1coc2ccccc12 [Compound 52] | 100
CC[C@@H](Nc1ncc(C(F)(F)F)c(N)n1)c1coc2ccccc12 [Compound 80] | 100
CC(Nc1ncc(C(F)(F)F)c(N)n1)c1cc2ccc(F)c(F)c2s1 (stereo not drawn) [Compound 86] | 100
CC(=O)c1cnc(NC(C)c2cc3ccccc3s2)nc1N (stereo not drawn) [Compound 57] | 100
CC[C@@H](Nc1ncc(C(F)(F)F)c(N)n1)c1cc2ccc(F)cc2s1 [Compound 48] | 100

Inquiry: // map Nc1nc(N[C@@H](c2coc3ccccc23)C2CC2)ncc1C(F)(F)F [Compound 79] to recorded Pigweed plant response rating (system: pigweed (Amaranthus retroflexus))
Reply text: 100

Inquiry: Fill in the recorded Pigweed plant response rating for this compound, with pigweed (Amaranthus retroflexus) as test system: CC(C)[C@@H](Nc1ncc(C(F)(F)F)c(N)n1)c1cc2ccccc2s1 [Compound 50]
Reply text: 40

Inquiry: Record lookup: for pigweed (Amaranthus retroflexus), what Pigweed plant response rating belongs to CC(Nc1ncc(C(F)(F)F)c(N)n1)c1coc2cccc(F)c12 (racemic) [Compound 96] ?
Reply text: 90

Inquiry: Report Pigweed plant response rating for CC(Nc1ncc(C(F)(F)F)c(N)n1)c1cc2c(Cl)cccc2o1 (stereo not drawn) [Compound 100] tested on pigweed (Amaranthus retroflexus).
Reply text: 100

Inquiry: // fetch pigweed (Amaranthus retroflexus) Pigweed plant response rating for CC(Nc1ncc(C(F)(F)F)c(N)n1)c1coc2cc(Cl)ccc12 (racemic) [Compound 77]
Reply text: 90

Inquiry: Which measured Pigweed plant response rating belongs to C[C@@H](Nc1ncc(C(F)(F)F)c(N)n1)c1cc2c(F)cccc2s1 [Compound 61] , tested on pigweed (Amaranthus retroflexus)?
Reply text: 100

Inquiry: # value lookup — system pigweed (Amaranthus retroflexus), readout Pigweed plant response rating, item CC(Nc1ncc(S(C)(=O)=O)c(N)n1)c1cc2ccccc2s1 (stereo not drawn) [Compound 107]
Reply text: 100

Inquiry: Lab note: need Pigweed plant response rating for CC[C@H](Nc1ncc(C(F)(F)F)c(N)n1)c1cc2ccc(F)cc2o1 [Compound 64] on pigweed (Amaranthus retroflexus), anyone have it?
Reply text: 0

====

System: barnyardgrass (Echinochloa crus-galli)
Experiment: Test A postemergence, barnyardgrass
Type: in vivo
Settings: Echinochloa crus-galli, post-emergence, 240 h, 500 g ai/ha, 0 to 100 scale, read-out: Plant response rating, Barnyardgrass
recorded.metric: pest or weed control at 500 g/ha
Please provide the amount together with its unit, number first.

A selection of reference data follows.
Cc1cc(C)cc(OC[C@@H](C)Nc2ncc(C(F)(F)F)c(N)n2)c1 | 90%
C[C@@H](Nc1ncc(C(F)(F)F)c(N)n1)c1cc2ccccc2s1 | 60%
C[C@@H](Nc1ncc(C(F)(F)F)c(N)n1)C1Cc2ccccc2C1 | 60%

Now look at this one.
Inquiry: Reported pest or weed control at 500 g/ha, compound C[C@@H](Nc1ncc(C(F)(F)F)c(N)n1)c1cc2ccc(F)cc2o1 : ____
Reply text: 90%

====

In this section we review reported pest or weed control at 500 g/ha values for a set of molecules.
Tested on: foxtail, giant (Setaria faberii)
Experiment: Test A postemergence, giant foxtail
Type: in vivo
Conditions: Setaria faberi, post-emergence, 240 h, 500 g ai/ha, 0 to 100 scale, read-out: Plant response rating, Foxtail, Giant
Reply numerically in %, unit not repeated.

// solved cases for pest or weed control at 500 g/ha follow
C[C@@H](Nc1ncc(C(F)(F)F)c(N)n1)c1cc2ccccc2s1 [Compound 4] | 70
C[C@@H](Nc1ncc(C(F)(F)F)c(N)n1)C1Cc2ccccc2C1 [Compound 13] | 100
C[C@@H](Nc1ncc(C(F)(F)F)c(N)n1)c1cc2ccc(F)cc2o1 [Compound 8] | 90

# context switch: different molecule, same pest or weed control at 500 g/ha
Inquiry: // lookup pest or weed control at 500 g/ha for Cc1cc(C)cc(OC[C@@H](C)Nc2ncc(C(F)(F)F)c(N)n2)c1 [Compound 25]
Reply text: 80

====

Test system: ducksalad (Heteranthera limosa)
Experiment: Test B flooded paddy test, ducksalad
Format: in vivo
Settings: Flood, 250 g ai/ha, applied to paddy water, 2-leaf stage, visual evaluation after 13 to 15 d
recorded.metric: Plant response rating, Ducksalad (0 to 100 scale, 0 is no effect, 100 is complete control)
Field format: numeric only.

Inquiry: # input compound: C[C@@H](Nc1ncc(C(F)(F)F)c(N)n1)c1cc2ccc(C(F)(F)F)cc2o1 ; wanted: its Plant response rating, Ducksalad (0 to 100 scale, 0 is no effect, 100 is complete control)
Reply text: 0

Inquiry: Given the entry C[C@@H](Nc1ncc(C(F)(F)F)c(N)n1)c1cc2c(F)ccc(F)c2s1 , report its measured Plant response rating, Ducksalad (0 to 100 scale, 0 is no effect, 100 is complete control).
Reply text: 65

Inquiry: Fill blank: measured Plant response rating, Ducksalad (0 to 100 scale, 0 is no effect, 100 is complete control) of the compound Cc1cc2oc([C@@H](C)Nc3ncc(C(F)(F)F)c(N)n3)cc2cc1F is ____.
Reply text: 0

Inquiry: # Plant response rating, Ducksalad (0 to 100 scale, 0 is no effect, 100 is complete control) lookup, item Nc1nc(NC(c2cc3ccccc3s2)C2CC2)ncc1C(F)(F)F (racemic)
Reply text: 40

Inquiry: Query (compound): CC(F)c1nc(N[C@H](C)c2cc3ccccc3o2)nc(N)c1C(F)(F)F (stereo partly drawn) ; field requested: Plant response rating, Ducksalad (0 to 100 scale, 0 is no effect, 100 is complete control)
Reply text: 0

Inquiry: Returns the measured Plant response rating, Ducksalad (0 to 100 scale, 0 is no effect, 100 is complete control) for the input compound. Input: C[C@@H](Nc1ncc(C(F)(F)F)c(N)n1)c1csc2ccccc12
Reply text: 35

Inquiry: Would you kindly share the measured Plant response rating, Ducksalad (0 to 100 scale, 0 is no effect, 100 is complete control) for CC(COc1cc(F)cc(F)c1)Nc1ncc(C(F)(F)F)c(N)n1 (stereo not drawn) ?
Reply text: 70

Inquiry: Fill in: Plant response rating, Ducksalad (0 to 100 scale, 0 is no effect, 100 is complete control) of Nc1nc(NC(c2coc3ccccc23)C2CC2)ncc1C(F)(F)F (racemic) is ___
Reply text: 55

Inquiry: Value lookup for Plant response rating, Ducksalad (0 to 100 scale, 0 is no effect, 100 is complete control); key = C[C@H](Nc1ncc(C(F)(F)F)c(N)n1)c1coc2ccc(F)cc12
Reply text: 0

Inquiry: Form field: reported Plant response rating, Ducksalad (0 to 100 scale, 0 is no effect, 100 is complete control) of C[C@@H](Nc1ncc(C(F)(F)F)c(N)n1)c1cc2ccccc2[s+]1[O-] (stereo partly drawn)
Reply text: 0

Inquiry: If you can, please state the reported Plant response rating, Ducksalad (0 to 100 scale, 0 is no effect, 100 is complete control) value of C[C@@H](Nc1ncc([S+](C)[O-])c(N)n1)c1cc2ccccc2s1 (stereo partly drawn) .
Reply text: 60

Inquiry: Entry under review: CC[C@H](Nc1ncc(C(F)(F)F)c(N)n1)c1coc2ccccc12 . Reported Plant response rating, Ducksalad (0 to 100 scale, 0 is no effect, 100 is complete control)?
Reply text: 0

Inquiry: Name the reported Plant response rating, Ducksalad (0 to 100 scale, 0 is no effect, 100 is complete control) value associated with the compound CC(Nc1ncc(C(F)(F)F)c(N)n1)c1cc2ccc(F)c(F)c2s1 (stereo not drawn)
Reply text: 75

Inquiry: For the compound CC[C@@H](Nc1ncc(C(F)(F)F)c(N)n1)c1cc2ccc(F)cc2o1 , what Plant response rating, Ducksalad (0 to 100 scale, 0 is no effect, 100 is complete control) is on record?
Reply text: 75

Inquiry: Name the recorded Plant response rating, Ducksalad (0 to 100 scale, 0 is no effect, 100 is complete control) for C[C@H](Nc1ncc(C(F)(F)F)c(N)n1)c1csc2ccccc12 .
Reply text: 0
